# key: entry, value: pKd
molecular target: T1, IFN-αJ1 (human, UniProt P01567 24-189); assay: ProteOn, one antigen concentration
T1 construct: also called IFN-α7; alpha J1
pKd is defined as minus the log10 of a concentration measured in mol/L.

binder: IFWM3357 (antibody, V domains shown, VH IFWH624, VL IFWL1038; converted mAb; also called IFWB3092) VH: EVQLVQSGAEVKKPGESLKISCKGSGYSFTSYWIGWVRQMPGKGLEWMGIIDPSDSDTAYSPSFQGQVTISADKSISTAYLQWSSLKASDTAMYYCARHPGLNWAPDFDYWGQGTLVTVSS VL: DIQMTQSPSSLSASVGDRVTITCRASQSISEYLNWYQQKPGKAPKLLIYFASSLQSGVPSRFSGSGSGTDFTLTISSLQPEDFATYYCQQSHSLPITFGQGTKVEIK
val: 9.89

# evaluate next
For reference, reported pKd for IFWM3312 (antibody, V domains shown, VH IFWH591, VL IFWL1010; converted mAb; also called IFWB3047) VH: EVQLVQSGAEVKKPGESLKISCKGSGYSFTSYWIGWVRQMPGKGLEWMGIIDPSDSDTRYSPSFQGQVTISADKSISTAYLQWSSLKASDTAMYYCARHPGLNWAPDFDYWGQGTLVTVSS VL: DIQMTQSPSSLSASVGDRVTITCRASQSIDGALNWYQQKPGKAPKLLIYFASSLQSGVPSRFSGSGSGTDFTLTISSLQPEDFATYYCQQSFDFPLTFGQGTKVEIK stands at 10.17
